Attribution: ChEMBL document CHEMBL1201862

Listed below: EC50 values for each entry.
Biological target: Kallikrein-7 (Homo sapiens, UniProt P49862)
Sequence (P49862 whole entry): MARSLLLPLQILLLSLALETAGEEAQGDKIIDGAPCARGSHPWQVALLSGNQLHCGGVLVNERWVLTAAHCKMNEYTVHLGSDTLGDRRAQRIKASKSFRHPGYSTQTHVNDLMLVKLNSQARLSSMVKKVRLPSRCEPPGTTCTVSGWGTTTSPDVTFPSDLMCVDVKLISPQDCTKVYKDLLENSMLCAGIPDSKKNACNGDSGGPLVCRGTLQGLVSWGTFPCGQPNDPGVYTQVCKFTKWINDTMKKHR
Experiment: Fluorescence Intensity-based biochemical primary high throughput dose response assay to identify activators of kallikrein-7 (K7) zymogen.
Calls of active or inactive are those of the source.

Give EC50 for the following compound: `Cc1ccccc1-n1c2nc(=O)n(C)c(=O)c-2cc2ccccc21`
85.3 µM (inactive)

Give EC50 for the following compound: `C[C@H](O)[C@@H]1C(=O)N2CCc3c([nH]c4ccccc34)[C@@H]2C[C@@H]1N(C)C(=O)c1cc(Cl)cc(Cl)c1`
> 23.2 µM (inactive)

Give EC50 for the following compound: `CCN1CCN(Cc2c(O)ccc3c2O/C(=C\c2ccc(C)cc2)C3=O)CC1`
23.9 µM (inactive)

Give EC50 for the following compound: `CNc1cncc(-c2ccc(OC)cc2)n1`
> 69.5 µM (inactive)

---

Molecular target: Caspase-3 (Homo sapiens, UniProt P42574);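 also: Dose-response selectivity test against caspase-3 for candidate inhibitors of sentrin-specific proteases (SENPs)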
Format: functional
Calls of active or inactive are those of the source.
parameter: IC50

Give IC50 for the following compound: `O=c1c2ccccc2nnn1COc1cccc(Cl)c1`
16.1 µM (active)

---

Target: Tumor necrosis factor (Homo sapiens)
Sequence (P01375 whole entry): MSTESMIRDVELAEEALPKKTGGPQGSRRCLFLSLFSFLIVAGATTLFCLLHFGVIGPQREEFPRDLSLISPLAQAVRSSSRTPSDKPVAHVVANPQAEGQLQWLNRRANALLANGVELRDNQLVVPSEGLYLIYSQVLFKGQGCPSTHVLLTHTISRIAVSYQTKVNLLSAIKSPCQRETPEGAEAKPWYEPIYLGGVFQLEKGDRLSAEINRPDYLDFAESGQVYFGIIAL
Experiment: analog potency on TNFa NF-kB signaling – cell-based, revised, SAR follow-up (AID 2337)
Assay type: functional
Calls of active or inactive are those of the source.
Outcomes you can answer with include only these: active, inactive

Here's what some known entries look like.
record-smiles | system-under-test | cat
O=C(Nc1cccc([N+](=O)[O-])c1)c1cc2ccccc2cc1O | Tumor necrosis factor (Homo sapiens) | active
Cc1ccc(Cn2c(NC(=O)c3ccco3)nc3ccccc32)cc1 | Tumor necrosis factor (Homo sapiens) | inactive
CCOc1ccc(NC(=O)c2ccc(CN3CCc4ccccc43)cc2)cc1 | Tumor necrosis factor (Homo sapiens) | inactive
COc1cccc(C(=O)Nc2sc3c(c2C(=O)O)CCCC3)c1 | Tumor necrosis factor (Homo sapiens) | inactive

# fetch the recorded call for `O=C(Nc1ccc(S(=O)(=O)N2CCOCC2)cc1)c1ccc(CN2CCc3ccccc3C2)cc1` here
active

---

Listed below: AC50 values for each entry.
Molecular target: FAD-linked sulfhydryl oxidase ALR (Homo sapiens, UniProt P55789)
Sequence (P55789 whole entry): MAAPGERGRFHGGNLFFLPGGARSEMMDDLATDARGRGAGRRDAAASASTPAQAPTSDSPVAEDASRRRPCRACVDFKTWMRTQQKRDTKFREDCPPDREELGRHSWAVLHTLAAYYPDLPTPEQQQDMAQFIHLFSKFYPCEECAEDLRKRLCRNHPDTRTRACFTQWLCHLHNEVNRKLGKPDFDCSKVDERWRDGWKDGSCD
Experiment: ALR-catalysed DTT oxidation blockers – biochemical, H2O2 detection, luminescence, cherry-pick, dose response (AID 493248)
Calls of active or inactive are those of the source.

compound | system-under-test | AC50
O=C(NCc1cccs1)C(=O)NCC(c1ccco1)N1CCN(c2ccccc2)CC1 (centres undefined) | FAD-linked sulfhydryl oxidase ALR (Homo sapiens, UniProt P55789) | 10 nM (active)
COc1cccc(CNC(=O)CCNC(=O)N2CCn3c2nc2ccccc23)c1 | FAD-linked sulfhydryl oxidase ALR (Homo sapiens, UniProt P55789) | 1090 nM (active)
Cc1cccc(N=Nc2cnc(N)s2)c1 | FAD-linked sulfhydryl oxidase ALR (Homo sapiens, UniProt P55789) | 1290 nM (active)
COc1ccccc1Nc1nc(C2(C)CCC(=O)O2)cs1 (centres undefined) | FAD-linked sulfhydryl oxidase ALR (Homo sapiens, UniProt P55789) | 4380 nM (active)
O=C(Nc1nc2c(s1)CCCC2)c1ccc(N2C(=O)CCC2=O)cc1 | FAD-linked sulfhydryl oxidase ALR (Homo sapiens, UniProt P55789) | 1110 nM (active)
Nc1n[nH]c(N2CCN(c3ccc(Cl)cc3)CC2)n1 | FAD-linked sulfhydryl oxidase ALR (Homo sapiens, UniProt P55789) | 325 nM (active)
Oc1ccc(/C=N/n2cc(-c3ccccc3)nc2S)cc1 | FAD-linked sulfhydryl oxidase ALR (Homo sapiens, UniProt P55789) | 860 nM (active)
COc1ccccc1N1CCN(C(=O)CCNS(=O)(=O)c2cc(Br)cnc2N)CC1 | FAD-linked sulfhydryl oxidase ALR (Homo sapiens, UniProt P55789) | 11800 nM (active)

Below: the item to evaluate.
Give AC50 for the following compound: `COc1cc(/C(C)=N/N2CCN(Cc3ccc(C)cc3)CC2)ccc1O`
7660 nM (active)

---

Test: Luminescence Cell-Based Dose Retest to Confirm Inhibitors of Cancer Stem Cells. [Related pubchem assays (depositor defined):AID2717, AID2721]
Format: functional
Settings: Homo sapiens
The source made the active and inactive calls.
parameter: AC50

The examples below pair each entry with its known result.
compound | data-value
CC(=O)Oc1ccc(C2=NN(c3ccccc3)C(c3ccccc3)C2)cc1 (stereo not drawn) | 2.63 µM (active)
Cc1cc(C)c2c(c1)/C(=C/C(=O)c1ccc(Br)s1)C(=O)N2 | 2.22 µM (active)
C=C(C)COc1ccc(-c2[nH]nc(C)c2-c2ccc(Br)cc2)c(O)c1 | 0.692 µM (active)
Cc1cccc(-n2ncc3c(N4CCCc5ccccc54)ncnc32)c1 | 7.31 µM (active)
Cc1[nH]n(-c2ccc([N+](=O)[O-])cc2)c(=O)c1/C=N/CCN1CCN(C(=O)C(C)C)CC1 | 4.61 µM (active)
COc1ccc(-c2sc3ccccc3c2C#Cc2cncn2C)cc1 | 2.69 µM (active)

Give AC50 for the following compound: COc1ccc(C2c3c(ncn(Cc4ccco4)c3=N)Oc3ccc4ccccc4c32)cc1 (stereo not drawn)
4.48 µM (active)

Give AC50 for the following compound: `Cn1c(=O)c(C(=O)NNC(=O)c2ccc(Br)cc2)c(O)c2ccccc21`
3.03 µM (active)

---

Listed below: EC50 values for each entry.
System: Streptococcus sp. 'group A'
Experiment: Streptococcus pyogenes SK(-)GAS viability under kanamycin – luminescence, BacTiterGlo, confirmation, counter-screen for streptokinase expression inhibitor project, dose response (AID 1900)
Format: functional, organism-based
Active and inactive are the calls of the source.

The examples below pair each entry with its known result.
compound | EC50
Oc1ccc(N=Nc2ccc3c(c2)OCCO3)c2cccnc12 | 0.352 µM (active)
O=C(Oc1ccc(-c2cnc3ccccc3n2)cc1)c1ccc(Cl)c([N+](=O)[O-])c1 | 11.5 µM (active)
COc1ccc(C2CC(O)(c3ccccc3)Oc3c(C)ccc(C)c32)cc1 (stereo not given) | > 150 µM (not active)
Cn1c(O)c(N=NC(S)=Nc2ccccc2F)c2cc(S(=O)(=O)N3CCOCC3)ccc21 | 7.47 µM (active)

Below: the item to evaluate.
Give EC50 for the following compound: `Oc1cccc2ccc(/C=C/c3ccc(Br)s3)nc12`
2.56 µM (active)

---

Target: Corticotropin-releasing factor receptor 2/Corticotropin-releasing factor-binding protein (Homo sapiens, UniProt P24387+Q13324)
Sequence (Q13324 whole entry): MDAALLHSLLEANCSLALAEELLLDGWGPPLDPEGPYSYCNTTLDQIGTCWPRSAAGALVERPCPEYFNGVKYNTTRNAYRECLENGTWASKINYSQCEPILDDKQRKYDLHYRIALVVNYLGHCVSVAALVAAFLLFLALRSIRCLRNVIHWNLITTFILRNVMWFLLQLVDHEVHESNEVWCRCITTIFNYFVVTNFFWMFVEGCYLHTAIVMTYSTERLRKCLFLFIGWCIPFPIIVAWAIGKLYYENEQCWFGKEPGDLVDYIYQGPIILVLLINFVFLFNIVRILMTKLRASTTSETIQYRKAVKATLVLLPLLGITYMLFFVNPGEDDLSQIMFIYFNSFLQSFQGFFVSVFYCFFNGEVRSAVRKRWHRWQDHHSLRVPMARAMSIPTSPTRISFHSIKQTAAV
Sequence (P24387 whole entry): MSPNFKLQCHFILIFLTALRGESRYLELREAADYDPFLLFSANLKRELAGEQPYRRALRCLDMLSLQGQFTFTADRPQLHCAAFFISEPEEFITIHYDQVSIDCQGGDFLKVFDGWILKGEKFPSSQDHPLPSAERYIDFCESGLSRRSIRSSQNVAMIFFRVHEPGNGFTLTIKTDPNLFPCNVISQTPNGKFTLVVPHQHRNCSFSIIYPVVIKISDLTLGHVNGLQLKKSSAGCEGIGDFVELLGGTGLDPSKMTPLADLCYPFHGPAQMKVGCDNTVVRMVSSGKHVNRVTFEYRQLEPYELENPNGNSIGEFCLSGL
Assay: Dose Response confirmation of uHTS hits for small molecule antagonists of the CRF-binding protein and CRF-R2 receptor complex.
Assay type: functional
Conditions: read-out: IC50_Mean
Activity calls are given as the source filed them.
Outcomes you can answer with include only these: true (active), false (inactive)

Here's what some known entries look like.
compound | cat
COc1ccccc1NC(=O)CSc1nnc(CNC(=O)c2ccco2)o1 | false
COc1ccc(NC(=O)C(Sc2ccccc2)c2ccccc2)c(OC)c1 (centres undefined) | false
COC(=O)c1cc(OC)c(OC)cc1NC(=O)C(C)Sc1ccc(C)cc1 (centres undefined) | false

# fetch the recorded call for `O=C(N/N=C/c1ccccn1)c1cccs1` here
false

# fetch the recorded call for `Cc1c(Cl)cccc1N1C(=O)c2ccccc2C1=O` here
false

# fetch the recorded call for `O=C1C(=Cc2ccncc2)CCCc2ccccc21` here
false

# fetch the recorded call for `CC(=O)c1ccc(NC(=O)CCc2nnc3ccc(N4CCC5(CC4)OCCO5)nn23)cc1` here
false

# fetch the recorded call for `COc1cccc2cc(-c3nnc(-c4ccccc4)o3)c(=O)oc12` here
true

# fetch the recorded call for `O=C(Nc1cccc(S(=O)(=O)N2CCCCC2)c1)c1ccc(S(=O)(=O)C(F)F)cc1` here
false

---

Assay: luciferase reporter signal suppression in cells – H4 neuroglioma cells, luminescence, dose response (AID 1990)
Format: functional, cell-based
Active and inactive are the calls of the source.
Listed below: EC50 values for each entry.

The examples below pair each entry with its known result.
molecule | EC50
COc1cc(-c2c(C#N)c(N)nc3c2CCCC3)cc(OC)c1OC | 27.4 µM (active)
CC(=O)Nc1ccc(C#Cc2ccc(NC(C)=O)cc2)cc1 | 16.5 µM (active)

Give EC50 for the following molecule: CC(Oc1ccc(Cl)cc1)c1ccnn1S(=O)(=O)c1ccccc1 (stereo unspecified)
17.4 µM (active)

Give EC50 for the following molecule: `COC(=O)/C=C/c1ccccc1S(=O)(=O)N(Cc1ccccc1)Cc1ccco1`
8.38 µM (inconclusive)

Give EC50 for the following molecule: `COc1cccc(OC)c1C1=NCC(=O)Nc2c1oc1ccc(Br)cc21`
0.752 µM (active)

Give EC50 for the following molecule: `Cc1nc2cc(-c3cccc(F)c3)nn2c(C)c1CCC(=O)N1CCC2(CC1)OCCO2`
10.1 µM (active)

---

Target: Leucine aminopeptidase (Plasmodium falciparum 3D7, UniProt Q8IL11)
Sequence (Q8IL11 whole entry): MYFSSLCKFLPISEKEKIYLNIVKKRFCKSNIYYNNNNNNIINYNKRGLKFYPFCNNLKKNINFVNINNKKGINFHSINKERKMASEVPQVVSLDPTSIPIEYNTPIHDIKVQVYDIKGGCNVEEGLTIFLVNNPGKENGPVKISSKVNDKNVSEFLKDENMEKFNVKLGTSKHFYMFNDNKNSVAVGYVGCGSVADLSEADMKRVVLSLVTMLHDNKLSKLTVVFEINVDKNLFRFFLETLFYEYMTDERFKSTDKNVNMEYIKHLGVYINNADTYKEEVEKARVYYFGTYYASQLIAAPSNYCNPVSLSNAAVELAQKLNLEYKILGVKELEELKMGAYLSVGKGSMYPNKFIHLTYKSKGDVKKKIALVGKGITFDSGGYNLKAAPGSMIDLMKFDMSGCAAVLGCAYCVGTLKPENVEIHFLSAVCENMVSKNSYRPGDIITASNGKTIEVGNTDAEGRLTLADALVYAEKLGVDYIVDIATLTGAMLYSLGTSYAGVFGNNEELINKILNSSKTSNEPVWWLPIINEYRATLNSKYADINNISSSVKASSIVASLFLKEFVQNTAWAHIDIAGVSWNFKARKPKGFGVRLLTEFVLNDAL
Experiment: P. falciparum M17LAP inhibitors, primary screen, biochemical, fluorogenic H-Leu-NHMec substrate, 1536-well (AID 1619)
Assay type: functional
Activity calls are given as the source filed them.
parameter: IC50

molecule | data-value
COC(=O)c1cc(NC(=O)C2CC=CCC2C(=O)O)cc(C(=O)OC)c1 (stereo not given) | 28.6 µM (active)

Give IC50 for the following molecule: `CCn1c(SCC(=O)c2ccc(O)c(O)c2)nnc1-c1ccccc1OC`
24.4 µM (active)

Give IC50 for the following molecule: `O=S(=O)(Nc1cccc2nsnc12)c1ccccc1`
15.5 µM (active)

Give IC50 for the following molecule: `O=C(O)Cn1cc(/C=C2/NC(=O)N(c3ccc(Cl)cc3)C2=O)c2ccccc21`
11.9 µM (active)

Give IC50 for the following molecule: `O=C(CSc1nc[nH]n1)Nc1ncc(C(F)(F)F)cc1Cl`
19.6 µM (active)
